Values compiled from patent US10618964B2.

# target or test system: native soluble IL-6R in human plasma (human, UniProt P08887)
# assay details: ELISA 1, periplasmic extract; competitor IL-6; human plasma
endpoint name: OD450 ratio sample/blank
In your answer, state the number alone without any accompanying words.

| binder | OD450 ratio sample/blank |
| --- | --- |
| IL6RPMP105E11 (VHH) VHH: EVQLVESGGGLVQAGGSLRLSCAASGFAFDDYAIGWFRQAPGKEREGVSSISSSNGNTYYADSVRGRFTISSDNAKNTVYLQMNGLKPEDTGVYYCAAIWGIFFNEKMPVGAYDYWGQGTQVTVSS | 0.679 |
| IL6RPMP101D6 (VHH) VHH: EVQLVESGGGLVQAGGSLRLSCTASGRTFSDYDMGWFRQAPGKERECVAIIDTNGDNTLIVGSVKGRFAISSDNAKNTVYLQMNSLLPEDTAVYTCAAGVWSSLRHTAANYWGQGTQVTVSS | 1.09 |
| IL6RPMP106F7 (VHH) VHH: EVQLVESEGGLVQAGGSLRLSCAASGSIFRINAMGWYRQAPGKQRELVAAAISGGSTNYADFVKGRFTISRDNAKNTVYLQMNSLKPEDTAVYYCNALVVSHNYSDYVPFPDDYWGQGTQVTVSS | 0.672 |
| IL6RPMP108D2 (VHH) VHH: EVQLVESGGGLVQAGGSLRLSCAASGFTFDDYDIGWFRQAPGKEREGVSGISSSDGNTYYADSVKGRFTISSDNAKNTVYLQMNSLKPEDTAVYYCAAEPPDSSWYLDGSPEFFKYWGQGTQVTVSS | 0.0624 |
| IL6RPMP104B8 (VHH) VHH: EVQLVESGGGLVQAGGSLRLSCAASGFAFDDYAIGWFRQAPGKEREGVSSISSSNGNTYYADSVRGRFTISSDNAKNTVYLQMNSLKPEDTGVYYCAAIWGIFFNEKMPVGAYDYWGQGTQVTVSS | 1.46 |

Please look up its OD450 ratio sample/blank: IL6RPMP120B2 (VHH) VHH: EVQLVESGGGLVQAGGSLSLSCATSGRTISDDTMAWFRQAPGKEREFVATITFSGARTHYSDSVRDRFTISRDNAKNTVYLQMNSLKSEDTAVYYCAASTKYYSSTYNYIHPAFYDIWGQGTQVTVSS
0.645

Report OD450 ratio sample/blank for IL6RPMP101H3 (VHH) VHH: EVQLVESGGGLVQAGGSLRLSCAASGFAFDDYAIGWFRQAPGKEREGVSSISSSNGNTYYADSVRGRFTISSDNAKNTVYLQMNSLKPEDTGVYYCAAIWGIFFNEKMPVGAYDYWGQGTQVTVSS please.
0.772

OD450 ratio sample/blank lookup needed for IL6RPMP108E1 (VHH) VHH: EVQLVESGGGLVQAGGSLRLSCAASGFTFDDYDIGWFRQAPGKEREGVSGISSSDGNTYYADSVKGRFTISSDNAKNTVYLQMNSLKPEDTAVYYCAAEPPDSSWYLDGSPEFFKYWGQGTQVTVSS , thanks.
0.0894
